assay: yeast display, Sf9 membrane polyspecificity reagent, FACS + sequencing; frameworks hold sequencing errors
value_type: polyreactivity (PSR sort gate)

[
  {
    "monomer_sequence": "QVQLVESGGGLVQEGGSLRLSCADSGSISYQNAMGWYRQAPGKERELVAAISGDGDSTYYADSVKGRFTISRDNAKNTVYLQMNSLNPEDTGVYYCAAEPNVYFSVFVLFPSDYWGQGTQVTVSS",
    "val": "low polyreactivity"
  },
  {
    "monomer_sequence": "QVQLVESGGGIVQAGGSLRLSCAASGRIFYDHAMGWYRQAPGKERELVAAITSVRSTNYADSVKGRFTISRDNAKNTVNLQMNSLKPEDTAVYYCARASAWYGTLVGKYTKYDYWGQATQVTVSS",
    "val": "low polyreactivity"
  },
  {
    "monomer_sequence": "QVQLEESGGGLVQAGGSLRLSCAASGRIFVTNAMGWSRQAPGKERELVADITSGGSTNYADSVKGRFTISRDNAKNTVYLQMNSLKPEDTAVYYCAARFTPYITSDDGHYDYWGQGTQVTVSS",
    "val": "low polyreactivity"
  },
  {
    "monomer_sequence": "QVPLVESGGGLVQAGGSLRLSCAASGSTLGRYAMGWYRQAPGKERELVASITWSDDSTYYADSEKGRFTISRDNAKNTVYLQMNSLKPEDTAVYYCAAAGNLYTYRFYYWGQGTQVTLSS",
    "val": "low polyreactivity"
  }
]

These measurements were taken from the nanobody polyreactivity screen of Harvey et al. (2022).
